Could you please report measured MIC for the items listed next?
- Tested on: Escherichia coli
- Assay Procedure: Antimicrobial activity against Escherichia coli harboring beta-lactamase VIM-18 by Etest
- Assay type: functional
Note to self: number, then unit, no commentary.

• CC1(C)S[C@@H]2[C@H](NC(=O)[C@H](N)c3ccccc3)C(=O)N2[C@H]1C(=O)O [AMPICILLIN] = 64 µg/mL
• CO/N=C(\C(=O)N[C@@H]1C(=O)N2C(C(=O)O)=C(COC(C)=O)CS[C@H]12)c1csc(N)n1 [CEFOTAXIME] = 2 µg/mL
• CO[C@@]1(NC(=O)Cc2cccs2)C(=O)N2C(C(=O)O)=C(COC(N)=O)CS[C@@H]21 [CEFOXITIN] = 8 µg/mL

Next up:
So, CCN1CCN(C(=O)N[C@@H](C(=O)N[C@@H]2C(=O)N3[C@@H]2SC(C)(C)[C@@H]3C(=O)O)c2ccccc2)C(=O)C1=O [PIPERACILLIN] ? Its MIC was 8 µg/mL
